Measured values drawn from ChEMBL document CHEMBL1123651 for this set.

Test system: frog
experiment_summary: In vitro potency relative to alpha-melanotropin (alpha-MSH), in the frog (Rana pipiens) skin bioassay
Type: functional
Where a SMILES comes first, the peptide text is derived from it.
reported_metric: Relative potency

Below: 4 compounds and their reported Relative potency.
INSERT INTO measurements (compound, result) VALUES
  ('CSCC[C@H](NC(C)=O)C(=O)N[C@@H](CCC(=O)O)C(=O)N[C@@H](Cc1c[nH]cn1)C(=O)N[C@@H](Cc1ccccc1)C(=O)N[C@@H](CCCN=C(N)N)C(=O)N[C@@H](Cc1c[nH]c2ccccc12)C(=O)NCC(N)=O', 0.0005),
  ('CC(=O)N[C@@H](Cc1c[nH]cn1)C(=O)N[C@@H](Cc1ccccc1)C(=O)N[C@@H](CCCN=C(N)N)C(N)=O (Ac-His-Phe-Arg-NH2)', 0),
  ('CC(=O)N[C@@H](Cc1c[nH]cn1)C(=O)N[C@@H](Cc1ccccc1)C(N)=O (Ac-His-Phe-NH2)', 0),
  ('CC(=O)N[C@@H](CCCCN)C(N)=O', 0);

# evaluate next
Q) Look up and report measured Relative potency for this entry: CC(=O)N[C@@H](CCCCN)C(=O)N1CCC[C@H]1C(=O)N[C@H](C(N)=O)C(C)C (Ac-Lys-Pro-Val-NH2)
A) 0

----------
Test system: frog
experiment_summary: In vitro potency relative to alpha-melanotropin (alpha-MSH), in the frog (Rana pipiens) skin bioassay
Type: functional
Below, each entry is listed with its recorded Relative potency.
# respond with the number and nothing more

INSERT INTO assay_data (smiles_record, quantitative_readout) VALUES
  ('CCCC[C@H](NC(C)=O)C(=O)N[C@@H](CCC(=O)O)C(=O)N[C@@H](Cc1c[nH]cn1)C(=O)N[C@@H](Cc1ccccc1)C(=O)N[C@@H](CCCN=C(N)N)C(=O)N[C@@H](Cc1c[nH]c2ccccc12)C(=O)NCC(N)=O', 0.002);

# evaluate next
Q) Look up and report measured Relative potency for this entry: `CCCC[C@H](NC(C)=O)C(=O)N[C@@H](CCC(=O)O)C(=O)N[C@@H](Cc1c[nH]cn1)C(=O)N[C@@H](Cc1ccccc1)C(=O)N[C@@H](CCCN=C(N)N)C(=O)N[C@@H](Cc1c[nH]c2ccccc12)C(=O)NCC(=O)N[C@@H](CCCCN)C(=O)N1CCC[C@H]1C(=O)N[C@H](C(N)=O)C(C)C`
A) 0.4

----------
System: frog
experiment_summary: In vitro potency relative to alpha-melanotropin (alpha-MSH), in the frog (Rana pipiens) skin bioassay
Assay type: functional
Where a SMILES comes first, the peptide text is derived from it. [ ]: non-standard residue; d: D form. Nle = CCCC[C@H](N)C(=O)O
reported_metric: Relative potency

Below: 2 compounds and their reported Relative potency.
INSERT INTO measurements (compound, result) VALUES
  ('CCCC[C@H](NC(C)=O)C(=O)N[C@@H](CCC(=O)O)C(=O)N[C@@H](Cc1c[nH]cn1)C(=O)N[C@@H](Cc1ccccc1)C(=O)N[C@@H](CCCN=C(N)N)C(=O)N[C@@H](Cc1c[nH]c2ccccc12)C(=O)NCC(=O)N[C@@H](CCCCN)C(N)=O (Ac-[Nle]EHFRWGK-NH2)', 0.002),
  ('CC(=O)N[C@@H](Cc1ccccc1)C(=O)N[C@@H](CCCN=C(N)N)C(=O)N[C@@H](Cc1c[nH]c2ccccc12)C(=O)NCC(N)=O (Ac-FRWG-NH2)', 0);

Q) Fetch value of Relative potency on frog for CC(=O)N[C@@H](Cc1ccccc1)C(=O)N[C@@H](CCCN=C(N)N)C(N)=O (Ac-Phe-Arg-NH2) .
A) 0

Q) Fetch value of Relative potency on frog for N=C(N)NCCC[C@H](NC(=O)[C@@H](N)Cc1ccccc1)C(=O)O (H-Phe-Arg-OH) .
A) 0

Q) Fetch value of Relative potency on frog for `CC(=O)N[C@@H](Cc1c[nH]cn1)C(=O)N[C@@H](Cc1ccccc1)C(=O)N[C@@H](CCCN=C(N)N)C(=O)N[C@@H](Cc1c[nH]c2ccccc12)C(N)=O` .
A) 5e-06

Q) Fetch value of Relative potency on frog for CCCC[C@H](NC(C)=O)C(=O)N[C@@H](CCC(=O)O)C(=O)N[C@@H](Cc1c[nH]cn1)C(=O)N[C@@H](Cc1ccccc1)C(=O)N[C@@H](CCCN=C(N)N)C(=O)N[C@@H](Cc1c[nH]c2ccccc12)C(=O)NCC(=O)N[C@@H](CCCCN)C(=O)N1CCC[C@H]1C(N)=O (Ac-[Nle]EHFRWGKP-NH2) .
A) 0.18
